SYSTEM UNDER TEST: Nitric oxide synthase (neuronal, human recombinant) nNOS (Homo sapiens, UniProt P29475)
Sequence (P29475 whole entry): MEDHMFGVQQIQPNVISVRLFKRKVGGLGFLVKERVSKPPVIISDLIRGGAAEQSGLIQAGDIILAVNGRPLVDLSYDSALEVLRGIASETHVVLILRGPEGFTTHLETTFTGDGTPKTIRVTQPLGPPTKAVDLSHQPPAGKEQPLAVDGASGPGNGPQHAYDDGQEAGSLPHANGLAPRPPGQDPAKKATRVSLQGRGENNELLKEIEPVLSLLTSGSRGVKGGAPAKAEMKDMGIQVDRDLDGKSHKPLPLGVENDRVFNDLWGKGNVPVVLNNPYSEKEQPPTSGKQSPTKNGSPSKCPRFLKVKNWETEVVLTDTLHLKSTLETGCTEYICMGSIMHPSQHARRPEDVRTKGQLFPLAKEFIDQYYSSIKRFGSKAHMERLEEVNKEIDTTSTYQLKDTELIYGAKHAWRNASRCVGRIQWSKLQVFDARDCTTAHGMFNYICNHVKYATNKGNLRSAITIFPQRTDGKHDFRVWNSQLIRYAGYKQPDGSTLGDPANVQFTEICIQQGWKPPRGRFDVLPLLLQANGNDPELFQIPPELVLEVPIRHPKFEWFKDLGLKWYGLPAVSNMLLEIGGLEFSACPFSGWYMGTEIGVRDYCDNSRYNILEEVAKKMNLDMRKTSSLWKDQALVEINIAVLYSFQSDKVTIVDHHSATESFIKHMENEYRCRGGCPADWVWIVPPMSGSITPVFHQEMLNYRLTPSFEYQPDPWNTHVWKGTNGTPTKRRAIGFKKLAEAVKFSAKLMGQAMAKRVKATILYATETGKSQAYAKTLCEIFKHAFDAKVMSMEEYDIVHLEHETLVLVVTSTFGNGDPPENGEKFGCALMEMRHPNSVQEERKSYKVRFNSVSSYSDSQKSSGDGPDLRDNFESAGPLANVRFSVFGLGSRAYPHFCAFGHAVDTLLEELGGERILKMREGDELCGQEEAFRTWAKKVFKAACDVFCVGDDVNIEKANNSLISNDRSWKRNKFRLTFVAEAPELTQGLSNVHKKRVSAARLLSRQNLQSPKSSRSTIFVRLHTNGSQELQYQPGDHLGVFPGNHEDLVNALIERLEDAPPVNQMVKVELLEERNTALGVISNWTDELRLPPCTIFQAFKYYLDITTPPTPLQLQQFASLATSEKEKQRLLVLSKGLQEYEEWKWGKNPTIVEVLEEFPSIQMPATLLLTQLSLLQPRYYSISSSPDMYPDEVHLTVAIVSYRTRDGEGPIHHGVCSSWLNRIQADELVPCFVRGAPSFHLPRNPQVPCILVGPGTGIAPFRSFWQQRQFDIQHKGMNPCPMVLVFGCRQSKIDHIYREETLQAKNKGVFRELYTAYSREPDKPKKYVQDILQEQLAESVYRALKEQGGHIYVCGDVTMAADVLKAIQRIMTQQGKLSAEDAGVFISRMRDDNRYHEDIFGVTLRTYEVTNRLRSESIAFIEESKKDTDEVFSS
PROTOCOL: Human nNOS enzyme assay ([3H]L-arginine to [3H]L-citrulline)
Type: biochemical
CONDITION DESCRIPTION: read-out: hnNOS IC50
Counter-ions that a name gives are not always drawn.
The reader will find reported IC50 values listed item by item below.
Please give a number only; it is taken to be in nM.

The examples below pair each entry with its known result.
COMPOUND | RECORDED RESULT
CN(C)CCN1CCCc2cc(NC(=N)c3cccs3)ccc21 [Example 11] | 430
CN1CCC(N2CCCc3cc(NC(=N)c4cccs4)ccc32)C1 (centres unmarked) [Example 35] | 360
N=C(Nc1ccc2c(c1)CCCCN2C1CCNC1)c1cccs1 (centres unmarked) [Example 48] | 330
CCN(CC)CCN1C(=O)CCc2cc(NC(=N)c3cccs3)ccc21 [Example 2] | 2210

Please report the recorded IC50 for N=C(Nc1ccc2c(c1)CCCN2C1CCNC1)c1cccs1 (centres unmarked) [Example 29, dihydrochloride] .
250

====

SYSTEM UNDER TEST: Nitric oxide synthase (neuronal, human recombinant) nNOS (Homo sapiens, UniProt P29475)
PROTOCOL: Human nNOS enzyme assay ([3H]L-arginine to [3H]L-citrulline)
Assay type: biochemical
CONDITION DESCRIPTION: human recombinant nNOS; values without parentheses; read-out: hnNOS IC50
QUANTITY KIND: pIC50
Answer as the number alone; pIC50 is minus log10 of concentration in mol/L.

Below, each entry is followed by its recorded pIC50 result.
MOLECULE | SYSTEM UNDER TEST | pIC50
N=C(Nc1ccc2c(c1)CCCCN2CCN1CCCC1)c1cccs1 | Nitric oxide synthase (neuronal, human recombinant) nNOS (Homo sapiens, UniProt P29475) | 6.46
N=C(Nc1ccc2c(c1)CCCCN2CCN1CCCCC1)c1cccs1 | Nitric oxide synthase (neuronal, human recombinant) nNOS (Homo sapiens, UniProt P29475) | 5.72
CNCCN1C(=O)CCc2cc(NC(=N)c3cccs3)ccc21 | Nitric oxide synthase (neuronal, human recombinant) nNOS (Homo sapiens, UniProt P29475) | 6.41

Which value of pIC50 has been reported for CNC1CCC(N2CCc3cc(NC(=N)c4cccs4)ccc32)CC1 (stereo not shown) [Example 71] in the records?
6.98

I would be grateful if you could share the reported pIC50 for CNCCN1CCCc2ccc(NC(=N)c3cccs3)cc21 .
6.92

Consider the molecule shown here: N=C(Nc1ccc2c(c1)CCCCN2C1CCNCC1)c1cccs1 What is its recorded pIC50?
5.64

Using the record for CN1CCCC1CCN1C(=O)CCc2cc(NC(=N)c3cccs3)ccc21 (stereo not shown) , report its pIC50.
5.96

====

SYSTEM UNDER TEST: Nitric oxide synthase (endothelial, human recombinant) eNOS (Homo sapiens)
Sequence (P29474 2-1203): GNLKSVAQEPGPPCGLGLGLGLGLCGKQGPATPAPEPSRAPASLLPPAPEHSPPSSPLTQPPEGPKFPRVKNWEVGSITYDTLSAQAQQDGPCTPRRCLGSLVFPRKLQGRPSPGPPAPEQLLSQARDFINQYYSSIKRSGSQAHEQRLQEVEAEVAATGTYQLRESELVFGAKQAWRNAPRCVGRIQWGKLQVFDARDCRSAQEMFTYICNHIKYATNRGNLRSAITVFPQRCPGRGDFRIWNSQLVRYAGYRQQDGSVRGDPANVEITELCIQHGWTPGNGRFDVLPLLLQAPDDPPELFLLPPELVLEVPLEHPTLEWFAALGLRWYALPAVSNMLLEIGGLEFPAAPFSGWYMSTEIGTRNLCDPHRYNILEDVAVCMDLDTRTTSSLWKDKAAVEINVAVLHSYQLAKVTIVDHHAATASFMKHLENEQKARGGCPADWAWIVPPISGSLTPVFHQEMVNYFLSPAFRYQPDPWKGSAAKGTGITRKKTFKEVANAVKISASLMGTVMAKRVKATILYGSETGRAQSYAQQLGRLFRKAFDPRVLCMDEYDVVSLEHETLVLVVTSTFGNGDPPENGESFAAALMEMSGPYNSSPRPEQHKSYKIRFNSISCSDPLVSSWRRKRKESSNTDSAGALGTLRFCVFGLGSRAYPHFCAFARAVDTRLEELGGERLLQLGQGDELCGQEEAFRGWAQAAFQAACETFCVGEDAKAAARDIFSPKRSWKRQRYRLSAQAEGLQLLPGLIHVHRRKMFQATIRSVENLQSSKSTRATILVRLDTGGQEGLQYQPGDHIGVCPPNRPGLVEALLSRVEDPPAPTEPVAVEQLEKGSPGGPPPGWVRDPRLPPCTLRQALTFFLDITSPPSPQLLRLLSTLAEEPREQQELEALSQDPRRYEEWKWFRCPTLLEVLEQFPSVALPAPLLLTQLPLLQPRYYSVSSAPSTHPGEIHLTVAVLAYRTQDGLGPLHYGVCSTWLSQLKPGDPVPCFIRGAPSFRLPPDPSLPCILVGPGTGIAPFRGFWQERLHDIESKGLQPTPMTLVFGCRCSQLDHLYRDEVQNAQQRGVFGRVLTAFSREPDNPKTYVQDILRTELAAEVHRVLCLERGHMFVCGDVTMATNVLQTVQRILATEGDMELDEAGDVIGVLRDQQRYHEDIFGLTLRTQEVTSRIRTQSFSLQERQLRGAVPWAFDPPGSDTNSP
PROTOCOL: Human eNOS enzyme assay ([3H]L-arginine to [3H]L-citrulline)
Type: biochemical
CONDITION DESCRIPTION: human recombinant eNOS; values without parentheses; read-out: heNOS IC50
# key: entry, value: pIC50
Lab note — pIC50 values are minus log10 of concentrations in M.

Look over these answered cases.
COMPOUND | pIC50
N=C(Nc1ccc2c(c1)CCCC(=O)N2CCN1CCCCC1)c1cccs1 [Example 38] | 3.83
CN(CCO)CCN1CCCc2cc(NC(=N)c3cccs3)ccc21 [Example 62] | 4.19
N=C(Nc1ccc2c(c1)C(C1CCNC1)C(=O)N2)c1cccs1 (stereo not shown) [Example 43] | 4.56
N=C(Nc1ccc2c(c1)CCCCN2CCN1CCCC1)c1cccs1 [Example 27] | 4.31
CC(CN1C(=O)CCc2cc(NC(=N)c3cccs3)ccc21)N1CCCC1 (stereo not shown) [Example 15] | 4.28
N=C(Nc1ccc2c(c1)CCCC(=O)N2CCN1CCCC1)c1cccs1 [Example 26] | 4.10

Now for the compound whose pIC50 we want.
What measured pIC50 is associated with CNCCN1C(=O)CCc2cc(NC(=N)c3cccs3)ccc21 [Example 34] on Nitric oxide synthase (endothelial, human recombinant) eNOS (Homo sapiens)?
4.35

Source of measurements: patent US8173813B2
